Each entry below carries its recorded cell count.
Assay: inhibitors of TNFa-induced NFkB p65 translocation, primary screen, imaging, HUVEC, MLSMR starter and 10KST1 sets (AID 438);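 also: compound added about 3h40 before a 20 min TNFalpha stimulation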
Settings: HUVEC TNFa-induced p65 nuclear translocation; measured here: nuclei count (cytotoxicity indicator), at 2.08 µM

Take a look at these entries with their results.
compound	readout	observed result
Cn1c(COc2ccccc2)nnc1SCC(=O)Nc1ccc(N2CCOCC2)c(Cl)c1	cell count	497
Cc1cccc(C)c1OCc1nnc2c3cnn(C)c3ncn12	cell count	456
CN(C)CCCN1C(=O)c2oc3ccc(Cl)cc3c(=O)c2C1c1cccnc1 (stereo not given)	cell count	611
COc1ccc(CC(NC(C)=O)C(=O)NC2CCN(c3nc(C)cc(C)c3C#N)CC2)c(OC)c1 (stereo not given)	cell count	750
CCN(CCNC(=O)C1CCN(S(=O)(=O)c2cccc3cccnc23)CC1)c1ccccc1	cell count	614
COc1ccc(N2CCN(C(c3cccs3)C(C)NC(=O)c3ccco3)CC2)cc1 (stereo not given)	cell count	467

Query cell count for COc1ccc(-c2nnc(SCc3nnc(-c4ccc(Cl)cc4)o3)n2-c2ccccc2)cc1
565

Query cell count for O=C(Cn1ncc2c1-c1ccccc1OC2)Nc1ccc(Cl)cn1
462

Query cell count for CC(=O)Nc1ccc(S(=O)(=O)N(C2=NCC(C)S2)c2ccccc2)cc1 (stereo not given)
594

Query cell count for CCOC(=O)CSc1nc2sc(C)c(C)c2c(=O)[nH]1
419

Query cell count for O=C(c1cccc2c1C(=O)N(Cc1cccnc1)C2)N1CCN(c2ccccc2)CC1
941

###

Each entry below carries its recorded inhibition.
Test: inhibitors of TNFa-induced NFkB p65 translocation, primary screen, imaging, HUVEC, MLSMR starter and 10KST1 sets (AID 438);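 also: compound added about 3h40 before a 20 min TNFalpha stimulation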;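 as to inhibition: signal is the nuclear over cytoplasmic p65 intensity ratio per well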
Conditions: HUVEC TNFa-induced p65 nuclear translocation; at 2 µM, stronger effect = higher value, 0% TNFa-plus-vehicle, 100% no-TNFa wells
Numbers only; they are read as %.

Take a look at these entries with their results.
molecule	observed result
O=C(c1ccc(S(=O)(=O)N2CCC(c3nc4ccccc4s3)CC2)cc1)N1CCOCC1	-2.9
CCN(CC)C(c1ccc(C)cc1)c1nnnn1C1CCCCC1 (stereo not drawn)	-6.7
COC(=O)c1ccc2ncccc2c1	2.6
O=C(Nc1ccc(S(=O)(=O)N2CCCCCC2)cc1)c1ccco1	1.5
O=C(Cc1c[nH]c2ccccc12)N1CCc2ccccc21	2.1

Query inhibition for CC(C)(C)NC(=O)COC(=O)c1ccc(O)cc1
-6.7

Query inhibition for COc1ccccc1S(=O)(=O)Cc1ccc(C(=O)N2CCN(c3ccccn3)CC2)o1
-4

Query inhibition for CC(=O)Nc1sc2c(c1C#N)CCCCC2
0.8

Query inhibition for COC(=O)c1ccc(CSc2nc(-c3ccc(OC)cc3)nc3c2c(=O)n(C)c(=O)n3C)o1
8.9

Query inhibition for COCCNC(=O)CSc1nc(-c2ccc(OC)c(OC)c2)cc(C(F)(F)F)n1
3.4

Query inhibition for CCCNC(=O)Nc1ccccc1C(=O)Nc1ccc(OC)cc1
8.1

Query inhibition for Clc1c(CSc2nc3ccccc3o2)nc2sccn12
7.3

Query inhibition for CCC(=O)N(Cc1ccco1)c1nc(-c2cc(OC)ccc2OC)cs1
-8

Query inhibition for CC(C)[C@H](NC(=O)[C@@H]1CSCN1C(=O)OC(C)(C)C)C(=O)NCC1CCC(C(=O)O)CC1 (stereo partly drawn)
8.6

Query inhibition for CCc1c(C(=O)Nc2ncn(Cc3cccc(C)c3)n2)csc1C
1.2

###

Test: endothelial E-selectin expression blockers – imaging, HUVEC, immunofluorescence, MLSMR starter and 10KST1 sets, primary screen (AID 487);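 also: 100% = median nuclei count of all wells on the same plate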
Settings: HUVEC TNFalpha-induced E-selectin immunofluorescence imaging, at 2 µM; measured here: cell number, toxicity
Each entry below carries its recorded nuclei count.
Numbers only; they are read as %.

Take a look at these entries with their results.
compound	nuclei count [%]
Cc1cc(=O)n(CC(C)C)c(O)c1C#N	109
O=c1c2[nH]c3ccc(Cl)cc3c2ncn1Cc1ccccn1	107
Nc1nc(N)nc(-c2ccccc2)n1	102
CC(O)c1nc2ccccc2n1C1CCCCC1 (configuration not stated)	111
CCCS(=O)(=O)C(=C1Nc2ccccc2N1)S(=O)(=O)CCC	75.9
O=C1OCCC1Sc1ncnc2sccc12 (configuration not stated)	110

Okay, next one:
Query nuclei count for COc1cc(NC(=O)c2ccco2)c(OC)cc1NC(=O)CCC(=O)Nc1cc(C)cc(C)c1
68.3

###

Assay: blockers of RIG-like receptor reporter activation – cell-based, Sendai virus stimulus, luciferase, 10K MLSCN set, TLR/RLR signaling modifier project, primary screen (AID 602276);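 also: firefly luciferase from ISG56 promoter only with Renilla not read in this screen; 0% = Sendai virus plus DMSO and 100% = medium plus DMSO without virus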
Details: HEK293 RL24 IRF3 luciferase reporter, at 10 µM, stronger effect = higher value
readout: inhibition (%)
Numbers only; they are read as %.

Take a look at these entries with their results.
compound	unit of measurement	inhibition
CC(C)(C)NC(=O)COC(=O)c1ccc(O)cc1	%	-6.22
O=C(NCCCN1CCCC1=O)C1CCN(S(=O)(=O)N2CCOCC2)CC1	%	-12.7
CC1CCN(c2oc(-c3cccc4ccccc34)nc2C#N)CC1	%	-40.5
Cn1c(=O)c2c(nc(NCCCO)n2Cc2cccc(Br)c2)n(C)c1=O	%	14.9
CCOC(=O)Cn1c(CN2CCOCC2)nc2c1c(=O)[nH]c(=O)n2C	%	15.2

Query inhibition for Cn1c(=O)[nH]c(=O)c2c1nc(N1CCCCC1)n2CCSc1ncccn1
10

Query inhibition for C#CC1(O)CC(C)N(C)C(C)C1 (stereo unspecified)
11

Query inhibition for CS(=O)(=O)Nc1ccc(C(=O)NCCc2ccccc2)cc1
-13.2

Query inhibition for Cc1ccc(-n2c(C)cc3c2CCCC3=O)cc1
5.45

Query inhibition for O=C(c1cccc(C(=O)N2CCN(c3ccc(F)cc3)CC2)c1)N1CCN(c2ccc(F)cc2)CC1
-6.05

Query inhibition for CCN(Cc1nc2cc(OC)c(OC)cc2c(=O)[nH]1)C(=O)c1ccc(S(=O)(=O)N(C)C)cc1
13.8

###

Assay: TLR3 IRF3 reporter activation blockers – cell-based, poly I:C stimulus, luciferase, 10K MLSCN set, primary screen (AID 602277)
Conditions: HEK293-TLR3 RL24 IRF3 luciferase reporter, at 10 µM
The source made the active and inactive calls.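 How the source made its calls: active means inhibition of the reporter signal at or above 50%; inactive means inhibition below 50%.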
I would appreciate it if you answered using one of these outcomes: active, inactive

molecule	assigned category
CCOC(=O)c1[nH]c2ccc(C)cc2c1NC(=O)CN1CCCCC1	inactive
COc1ccc(S(=O)(=O)Nc2ccc(Cl)cn2)c(C)c1C	inactive
CCNc1ccc(S(=O)(=O)C(F)(F)F)cc1NC(=O)C12CCC(CC1)C2	active

Short answer needed: outcome of this test for COC(=O)c1sc(S(=O)(=O)N2CCN(c3ccccc3)CC2)c(C(=O)OC)c1C ?
inactive

Short answer needed: outcome of this test for COc1ccccc1CN1C(=O)CCC1(C)C(=O)NC1CCCCCC1 (stereo unspecified) ?
inactive

Short answer needed: outcome of this test for O=C(Nc1cccc(OCC(=O)N2CCOCC2)c1)C1CCCCC1 ?
inactive

Short answer needed: outcome of this test for CCC(C(=O)Nc1ncccn1)(C(F)(F)F)C(F)(F)F ?
inactive

Short answer needed: outcome of this test for Cc1cc(C(=O)Nc2c(F)cc(F)cc2Br)no1 ?
inactive

Short answer needed: outcome of this test for Cc1nn(C(=O)c2ccccc2)c2c1C(=O)CC(C)(C)C2 ?
inactive

Short answer needed: outcome of this test for c1ccc(N=P(c2nc3ccccc3o2)(N2CCOCC2)N2CCOCC2)cc1 ?
inactive

Short answer needed: outcome of this test for COc1ccc(OC)c(Nc2nc(-c3cccs3)cs2)c1 ?
inactive

###

Test: inhibitors of TNFa-induced NFkB p65 translocation, primary screen, imaging, HUVEC, MLSMR starter and 10KST1 sets (AID 438);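 also: compound added about 3h40 before a 20 min TNFalpha stimulation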
Settings: HUVEC TNFa-induced p65 nuclear translocation; measured here: nuclei count (cytotoxicity indicator), at 2.08 µM
readout: cell count
# print the numeric value only

Query cell count for Cc1cc(-c2ccccc2)nc(SCc2ccc(C(=O)O)o2)n1
398

Query cell count for CCOc1ccccc1C1CC(c2ccc(Br)cc2)Nc2nc(N)nn21 (stereo unspecified)
593

Query cell count for Cc1ccc(Cl)cc1NC(=O)CSc1nnc(C)n1-c1ccccc1
783

Query cell count for Cc1sc2ncnc(OCC(=O)N3CCN(S(=O)(=O)c4ccccc4)CC3)c2c1C
247

Query cell count for COC(=O)CN(Cc1ccco1)S(=O)(=O)c1ccccc1
554

Query cell count for CCSCc1nnc(SCC(=O)Nc2cccc(SC)c2)n1C
492

###

Assay: reduction of polyQ htt aggregates in cells – imaging, exon1htt(103Q)mCFP cells, high-content imaging, primary screen (AID 483);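 also: compound exposure lasted 3 days before fixation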
Settings: exon1htt(103Q)mCFP cell line, aggregate imaging, at 2 µM; stronger effect = higher value
Each entry below carries its recorded inhibition of aggregation.
Numbers only; they are read as %.

Query inhibition of aggregation for COc1ccc(C)cc1NC(=O)c1nc2nc(C)cc(C)n2n1
5.2

Query inhibition of aggregation for CS(=O)(=O)NCc1nnc(SCC(=O)NC2CCCCC2)n1-c1ccc(F)cc1
-0.9

Query inhibition of aggregation for Cn1c(=O)[nH]c(=O)c2c1nc(Br)n2CCCSc1nc2ccccc2o1
-18.5

Query inhibition of aggregation for CC(=O)NC1(C(F)(F)F)NC(=O)N(CC(C)C)C1=O (stereo unspecified)
-8.3

Query inhibition of aggregation for COc1cc(OC)cc(-c2nc3cc(C)ccc3o2)c1
-2

Query inhibition of aggregation for Cc1cc(C(F)(F)F)c2c(C)nn(CCc3nn[nH]n3)c2n1
11.9

From: PubChem BioAssay
